Hey, just so you know, these numbers are from ChEMBL document CHEMBL1821663.

Biological target: Glycogen synthase kinase-3 beta (Homo sapiens, UniProt P49841)
Sequence (P49841 whole entry, looked up): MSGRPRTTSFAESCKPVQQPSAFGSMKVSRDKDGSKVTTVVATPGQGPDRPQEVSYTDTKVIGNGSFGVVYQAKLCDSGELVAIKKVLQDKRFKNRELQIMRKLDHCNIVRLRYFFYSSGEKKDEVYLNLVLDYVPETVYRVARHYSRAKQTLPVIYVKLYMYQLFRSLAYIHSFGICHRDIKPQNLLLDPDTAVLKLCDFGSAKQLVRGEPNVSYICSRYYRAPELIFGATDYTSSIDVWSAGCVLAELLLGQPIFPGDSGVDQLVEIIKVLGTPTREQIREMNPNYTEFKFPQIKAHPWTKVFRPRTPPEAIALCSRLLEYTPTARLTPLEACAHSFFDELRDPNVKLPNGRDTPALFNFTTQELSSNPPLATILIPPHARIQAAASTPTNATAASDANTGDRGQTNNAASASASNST
Experiment: Inhibition of GSK3-beta assessed as [32P]gamma-ATP incorporation into substrate at 10 uM after 15 mins by gamma counting; values are per cent of control
Experimental Readout: residual activity (%)

COc1ccc(CNC(=O)Nc2cc(-c3ccccc3OC)ccn2)cc1 | 32
COc1ccc(CNC(=O)Nc2ncc([N+](=O)[O-])s2)cc1 | 20
COc1ccc(CNC(=O)Nc2cc(-c3nnn[nH]3)ccn2)cc1 | 24

* * *

The entries below are paired with their reported IC50.
Target: Aurora kinase A (Homo sapiens)
Sequence (O14965 whole entry): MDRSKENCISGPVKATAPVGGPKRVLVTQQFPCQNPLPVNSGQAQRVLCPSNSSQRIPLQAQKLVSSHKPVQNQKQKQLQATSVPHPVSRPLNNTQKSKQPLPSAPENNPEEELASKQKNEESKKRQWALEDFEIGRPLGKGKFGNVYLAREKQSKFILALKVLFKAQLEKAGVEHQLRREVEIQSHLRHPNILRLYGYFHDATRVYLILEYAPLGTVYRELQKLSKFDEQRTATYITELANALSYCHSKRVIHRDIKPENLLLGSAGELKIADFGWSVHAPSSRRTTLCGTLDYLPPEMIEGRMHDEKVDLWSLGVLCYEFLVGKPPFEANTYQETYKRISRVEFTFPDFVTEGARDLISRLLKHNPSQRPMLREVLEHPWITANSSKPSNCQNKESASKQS

COc1ccc(CNC(=O)Nc2cc(-c3nnn[nH]3)ccn2)cc1 | > 100 µM
COc1ccc(CNC(=O)Nc2nc3ccc([N+](=O)[O-])cc3s2)cc1 | > 100 µM

Okay, now this compound:
*Q* Item COc1ccc(CNC(=O)Nc2nc3ccc(-c4nnn[nH]4)cc3s2)cc1 has what recorded IC50?
*A* 4.8 µM

* * *

Target: Glycogen synthase kinase-3 beta (Homo sapiens)
Assay: Inhibition of GSK3-beta assessed as [32P]gamma-ATP incorporation into substrate at 1 uM after 15 mins by gamma counting; values are per cent of control
Experimental Readout: residual activity (%)

COc1ccc(CNC(=O)Nc2nc3ccc(C#N)cc3s2)cc1 | 57

[A] COc1ccc(CNC(=O)Nc2cc(C#N)ccn2)cc1
[B] COc1ccc(CNC(=O)Nc2nc3ccc(-c4nnn[nH]4)cc3s2)cc1
*Q* Returns the identifier with the smallest measured residual activity among A and B . Your answer should be the label attached to the chosen record.
*A* B
(B: 69%, A: 101%)

* * *

Species: Danio rerio
Assay: Toxicity in 8 to 15 -somite stage zebrafish embryo after 18 to 25 hrs
Assay type: organism-based
Conditions: in vivo
Experimental Readout: Activity

Solved entries (count: 4):
Nc1nc(NCCNc2ncc(-c3ncc[nH]3)c(-c3ccc(Cl)cc3Cl)n2)ccc1[N+](=O)[O-] | Non-toxic
COc1ccc(CNC(=O)Nc2ncc([N+](=O)[O-])s2)cc1 | Toxic
COc1ccc(CNC(=O)Nc2cc(-c3nnn[nH]3)ccn2)cc1 | Non-toxic
COc1ccc(CNC(=O)Nc2nc3ccc(-c4nnn[nH]4)cc3s2)cc1 | Non-toxic

Okay, now this compound:
*Q* Item CCOC(=O)c1sc(NC(=O)NCc2ccc(F)cc2)nc1C has what recorded Activity?
*A* Non-toxic

* * *

Biological target: Glycogen synthase kinase-3 beta (Homo sapiens, UniProt P49841)
Assay: Inhibition of GSK3-beta assessed as [32P]gamma-ATP incorporation into substrate at 10 uM after 15 mins by gamma counting; values are per cent of control
Experimental Readout: residual activity (%)

Solved entries (count: 4):
COc1ccc(CNC(=O)Nc2cc(-c3cccnc3F)ccn2)cc1 | 12
COc1ccc(CNC(=O)Nc2nc3ccc(-c4nnn[nH]4)cc3s2)cc1 | 18
COc1ccc(CNC(=O)Nc2ccc([N+](=O)[O-])cn2)cc1 | 31
COc1ccc(CNC(=O)Nc2cc(C#N)ccn2)cc1 | 42

[a] COc1ccc(CNC(=O)Nc2ccc(C#N)cn2)cc1
[b] COc1ccc(CNC(=O)Nc2nc3ccc(C#N)cc3s2)cc1
*Q* Compare a and b by numeric residual activity and name the larger one. Your answer should be the label attached to the chosen record.
*A* a
(a: 40%, b: 24%)

* * *

Target: Casein kinase I isoform epsilon (Homo sapiens, UniProt P49674)
Sequence (P49674 whole entry, canonical isoform): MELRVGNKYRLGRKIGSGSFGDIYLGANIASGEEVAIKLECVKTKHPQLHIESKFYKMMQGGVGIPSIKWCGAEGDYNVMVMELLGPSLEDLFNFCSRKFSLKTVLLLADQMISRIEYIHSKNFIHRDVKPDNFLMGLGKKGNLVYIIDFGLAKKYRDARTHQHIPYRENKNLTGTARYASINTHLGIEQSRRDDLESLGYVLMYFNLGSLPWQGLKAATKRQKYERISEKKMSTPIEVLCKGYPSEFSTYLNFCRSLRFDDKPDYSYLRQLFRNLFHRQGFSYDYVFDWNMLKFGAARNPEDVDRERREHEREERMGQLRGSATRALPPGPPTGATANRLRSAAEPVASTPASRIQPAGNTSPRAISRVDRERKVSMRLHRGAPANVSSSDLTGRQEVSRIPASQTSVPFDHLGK
Test: Inhibition of human CKI epsilon activity using Ser/Thr 11 peptide as substrate by FRET assay
Experimental Readout: IC50

*Q* Item COc1ccc(CNC(=O)Nc2nc3ccc(-c4nnn[nH]4)cc3s2)cc1 has what recorded IC50?
*A* 15.3 µM

*Q* Then what about the molecule COc1ccc(CNC(=O)Nc2cc(-c3nnn[nH]3)ccn2)cc1 ?
*A* > 100 µM

*Q* Then what about the molecule COc1ccc(CNC(=O)Nc2cc(C#N)ccn2)cc1 ?
*A* > 100 µM

*Q* Then what about the molecule COc1ccc(CNC(=O)Nc2nc3ccc([N+](=O)[O-])cc3s2)cc1 ?
*A* > 100 µM

*Q* Then what about the molecule COc1ccc(CNC(=O)Nc2ncc([N+](=O)[O-])s2)cc1 ?
*A* > 100 µM

* * *

Target: Cyclin-dependent kinase 5/CDK5 activator 1 (Homo sapiens, UniProt Q00535)
Sequence (Q00535 whole entry): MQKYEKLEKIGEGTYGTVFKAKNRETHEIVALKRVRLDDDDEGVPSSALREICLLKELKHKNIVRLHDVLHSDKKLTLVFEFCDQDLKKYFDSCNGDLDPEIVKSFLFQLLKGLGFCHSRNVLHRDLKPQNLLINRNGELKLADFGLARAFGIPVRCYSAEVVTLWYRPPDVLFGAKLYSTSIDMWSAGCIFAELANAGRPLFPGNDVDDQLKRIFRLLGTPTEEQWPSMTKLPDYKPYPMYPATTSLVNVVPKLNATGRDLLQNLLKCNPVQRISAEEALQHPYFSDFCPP
Sequence (Q15078 whole entry, further chain): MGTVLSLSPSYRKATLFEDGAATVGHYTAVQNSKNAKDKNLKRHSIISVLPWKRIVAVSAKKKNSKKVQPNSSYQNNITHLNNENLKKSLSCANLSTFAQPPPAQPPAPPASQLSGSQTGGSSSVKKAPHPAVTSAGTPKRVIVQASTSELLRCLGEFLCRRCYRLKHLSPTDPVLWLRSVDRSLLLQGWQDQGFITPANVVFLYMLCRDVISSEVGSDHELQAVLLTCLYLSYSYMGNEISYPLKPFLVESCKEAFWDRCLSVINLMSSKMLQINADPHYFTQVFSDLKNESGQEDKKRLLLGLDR
Assay: Inhibition of human CDK5/p35 activity using Ser/Thr 12 peptide as substrate by FRET assay
pIC50: −log10 of the molar value.
Experimental Readout: pIC50

Solved entries (count: 3):
COc1ccc(CNC(=O)Nc2cc(-c3nnn[nH]3)ccn2)cc1 | < 4.00
COc1ccc(CNC(=O)Nc2cc(C#N)ccn2)cc1 | < 4.00
COc1ccc(CNC(=O)Nc2nc3ccc(-c4nnn[nH]4)cc3s2)cc1 | 4.58

*Q* Item COc1ccc(CNC(=O)Nc2nc3ccc([N+](=O)[O-])cc3s2)cc1 has what recorded pIC50?
*A* < 4.00

* * *

Target: Glycogen synthase kinase-3 beta (Homo sapiens, UniProt P49841)
Experiment: Inhibition of GSK3-beta assessed as [32P]gamma-ATP incorporation into substrate at 1 uM after 15 mins by gamma counting; values are per cent of control
Experimental Readout: residual activity (%)

COc1ccc(CNC(=O)Nc2cc(-c3ccccc3OC)ccn2)cc1 | 91
COc1ccc(CNC(=O)Nc2cc(-c3nnn[nH]3)ccn2)cc1 | 82
COc1ccc(CNC(=O)Nc2ccc(C#N)cn2)cc1 | 79
COc1ccc(CNC(=O)Nc2ncc([N+](=O)[O-])s2)cc1 | 55
COc1ccc(CNC(=O)Nc2ccc([N+](=O)[O-])cn2)cc1 | 75
